# credit: PubChem BioAssay (NCATS)

- assay method text: qHTS of pediatric cancer cell lines to identify multiple opportunities for drug repurposing: Primary screen for NB-EBc1 cells (AID 1347095)
- condition notes: NB-EBc1 neuroblastoma viability, CellTiter-Glo luminescence, 48 h; series mostly up to 46 µM
Records with an inconclusive call do not appear. Activity calls are given as the source filed them. Calls follow the shape of the dose curve; as a rule, active = well fitted cell-killing curve with a large enough effect; inconclusive = small, poorly fitted or top-dose-only effect; inactive = no such curve, though single readings can be large or run the other way.
Bench note: report the call from T (active), F (inactive)

Some entries whose results are on file:
>  <compound>
NCCc1cnc[nH]1

>  <assigned label>
F

$$$$
>  <compound>
Cc1cn([C@H]2C[C@H](N=[N+]=[N-])[C@@H](CO)O2)c(=O)[nH]c1=O

>  <assigned label>
F

$$$$
>  <compound>
NC12CC3CC(CC(C3)C1)C2

>  <assigned label>
F

$$$$
>  <compound>
COc1ccc(C2CNC(=O)C2)cc1OC1CCCC1 (stereo unspecified)

>  <assigned label>
F

$$$$

Consider the record given below.
Query :: Field: outcome | Entry: `Cn1c(=O)c2c(ncn2C)n(C)c1=O`
Result :: F

====

- assay method text: qHTS for differential inhibitors of proliferation of Plasmodium falciparum line GB4 (AID 1816);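 also: parasite growth measured after 72 h incubation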
- condition notes: Plasmodium falciparum GB4 proliferation inhibition; series mostly up to 28.7 µM
Inconclusive results are not listed. Activity calls are given as the source filed them. The call rests on the fitted dose curve; in most records, active means well fitted curve in the direction sought with a large enough effect; inconclusive means small, poorly fitted or top-dose-only effect, or another doubt; inactive means no such curve, though single readings can be large or run the other way.
Bench note: report the call from T for active, F for inactive

>  <molecule>
CN(C)c1nc(N(C)C)nc(N(C)C)n1

>  <assigned label>
F

$$$$
>  <molecule>
NC(CO)C(=O)NNCc1ccc(O)c(O)c1O (centres undefined)

>  <assigned label>
F

$$$$
>  <molecule>
NCCS(=O)(=O)O

>  <assigned label>
F

$$$$
>  <molecule>
Cn1ccc2cc3c(cc21)CCN3C(=O)Nc1cccnc1

>  <assigned label>
T

$$$$
>  <molecule>
CN1CCN(CCCN2c3ccccc3Sc3ccc(Cl)cc32)CC1

>  <assigned label>
T

$$$$

Query :: Field: outcome | Entry: `Clc1ccccc1C(c1ccccc1)(c1ccccc1)n1ccnc1`
Result :: T

Query :: Field: outcome | Entry: `CCOC(=O)c1ncn2c1CN(C)C(=O)c1cc(F)ccc1-2`
Result :: F

Query :: Field: outcome | Entry: `CN(C)CCC=C1c2ccccc2C=Cc2ccccc21`
Result :: T

Query :: Field: outcome | Entry: `CN(C)CCCN1c2ccccc2CCc2ccc(Cl)cc21`
Result :: T

====

- assay method text: qHTS drug screen for cell cycle checkpoint inhibitors in PARPi-resistant BRCA-mutant ovarian cancer cell lines. (AID 1963452)
- condition notes: PEO1/OlaR viability, CellTiter-Glo luminescence, 96 h; stronger effect = lower value
Grouping by measured Z-AUC is done with the following cut points: LOW = under 0.5, MEDIUM = from 0.5 up to 1, HIGH = 1 and over

Query :: Which category fits this record: `CCOC(=O)C(C)(C)Oc1ccc(Cl)cc1`
Result :: MEDIUM

====

- System: HEK293
- assay method text: Cytotoxic Profiling of Annotated Libraries Using Quantitative High-Throughput Screening (AID 1296008); also: nearly all actives have a fitted effect of over 60% in size; also: potency is read from the fitted curve at half-maximal effect
- condition notes: Five cell lines viability, CellTiter-Glo ATP luminescence, 48-72 h
Records with an inconclusive call do not appear. Activity calls are given as the source filed them. Calls follow the shape of the dose curve; as a rule, active = well fitted inhibition curve with a large enough effect; inconclusive = small, poorly fitted or top-dose-only effect; inactive = flat fitted curve, though single readings scatter.
parameter measured: Potency

Below, each entry is followed by its recorded Potency result.
>  <compound>
CCCNCC(O)COc1ccccc1C(=O)CCc1ccccc1 (stereo not given)

>  <study target>
HEK293

>  <Potency>
21.1 µM (active)

$$$$
>  <compound>
Cn1ccc2cc3c(cc21)CCN3C(=O)Nc1cccnc1

>  <study target>
HEK293

>  <Potency>
inactive

$$$$
>  <compound>
COc1ccccc1OCC(O)CN1CCN(CC(=O)Nc2c(C)cccc2C)CC1 (stereo not given)

>  <study target>
HEK293

>  <Potency>
inactive

$$$$
>  <compound>
O=C1N(c2ccccc2)c2ccccc2C1(Cc1ccncc1)Cc1ccncc1

>  <study target>
HEK293

>  <Potency>
inactive

$$$$

Query :: For the compound `CN1CCN(CCCN2c3ccccc3Sc3ccc(Cl)cc32)CC1` , give its measured Potency value.
Result :: 14.8 µM (active)
